test: melting temperature; melt of duplexes; settings: sodium 0.0675 M; strand 1 µM
Each record is given YES if its reported Tm is strictly below 60 °C. Records at or above 60 °C are given NO.

Here are 2 substances together with their reported answers.
{"columns": ["Substance", "Group"],
 "data": [
  ["CGACGTGCACTATGTGCTG+CAGCACATCGGGCACGTCG ((((((((.(.((((((((+)))))))).).))))))))", "YES"],
  ["CGACGTGCCCAATGTGCTG+CAGCACATTGGGCACGTCG (((((((((((((((((((+)))))))))))))))))))", "NO"]
]}

QUERY: In plain terms, does CGACGTGCTGTATGTGCTG+CAGCACATAGAGCACGTCG (((((((((.(((((((((+))))))))).))))))))) come in under 60 °C for Tm?
RESULT: YES

QUERY: Lab note: confirm whether the reported Tm for this substance is below 60 °C, equality not counting. substance: CGACGTGCGGTATGTGCTG+CAGCACATGGGGCACGTCG ((((((((...((((((((+))))))))...))))))))
RESULT: YES

QUERY: Is 60 °C strictly greater than the substance's reported Tm? substance: CGACGTGCCCGATGTGCTG+CAGCACATTGGGCACGTCG ((((((((((.((((((((+)))))))).))))))))))
RESULT: NO

----------
assay: melting temperature; melt of duplexes; conditions: sodium 0.0675 M; strand 1 µM
Measured Parameter: Tm (°C)
Entry rule: numbers only, all in °C.

{"columns": ["Substance", "Measured Parameter", "Observed Result"],
 "data": [
  ["CGACGTGCGGTATGTGCTG+CAGCACATCTTGCACGTCG ((((((((...((((((((+))))))))...))))))))", "Tm", 50.7]
]}

QUERY: Identify measured Tm corresponding to CGACGTGCTAGATGTGCTG+CAGCACATAACGCACGTCG ((((((((...((((((((+))))))))...))))))))
RESULT: 49.9

QUERY: Identify measured Tm associated with CGACGTGCAGTATGTGCTG+CAGCACATGACGCACGTCG ((((((((...((((((((+))))))))...))))))))
RESULT: 49.1

QUERY: Consider the substance CGACGTGCTCCATGTGCTG+CAGCACATCGGGCACGTCG ((((((((.(.((((((((+)))))))).).)))))))) and give its recorded Tm.
RESULT: 51.2

----------
assay: melting temperature; melt of duplexes; conditions: sodium 0.0675 M; strand 1 µM
Measured Parameter: Tm (°C)
The reply should be a number in °C, with the unit left off.

Worked examples, 6 substances total:
{"columns": ["Substance", "Observed Result"],
 "data": [
  ["CGACGTGCTTTATGTGCTG+CAGCACATATGGCACGTCG ((((((((..(((((((((+)))))))))..))))))))", 51.6],
  ["CGACGTGCCGAATGTGCTG+CAGCACATGCCGCACGTCG ((((((((.(.((((((((+)))))))).).))))))))", 51.5],
  ["CGACGTGCAAAATGTGCTG+CAGCACATCGAGCACGTCG ((((((((...((((((((+))))))))...))))))))", 49.2],
  ["CGACGTGCCATATGTGCTG+CAGCACATCCGGCACGTCG (((((((((..((((((((+))))))))..)))))))))", 52.8],
  ["CGACGTGCGATATGTGCTG+CAGCACATTATGCACGTCG ((((((((...((((((((+))))))))...))))))))", 52.2],
  ["CGACGTGCGAGATGTGCTG+CAGCACATTTGGCACGTCG ((((((((.(.((((((((+)))))))).).))))))))", 52.5]
]}

QUERY: Return reported Tm. Input substance: CGACGTGCTCCATGTGCTG+CAGCACATCACGCACGTCG ((((((((...((((((((+))))))))...))))))))
RESULT: 47

QUERY: Give the measured Tm for CGACGTGCGCAATGTGCTG+CAGCACATCCCGCACGTCG (((((((((..((((((((+))))))))..)))))))))
RESULT: 52.5

----------
test: melting temperature; melt of duplexes; conditions: sodium 0.0675 M; strand 1 µM
Decide using Tm: a value greater than or equal to 50 °C is yes (1), a smaller one is no (0).

{"columns": ["Substance", "Group"],
 "data": [
  ["CGACGTGCAGAATGTGCTG+CAGCACATCCAGCACGTCG ((((((((.(.((((((((+)))))))).).))))))))", "yes (1)"],
  ["CGACGTGCACTATGTGCTG+CAGCACATAGCGCACGTCG ((((((((.((((((((((+)))))))))).))))))))", "yes (1)"],
  ["CGACGTGCTCCATGTGCTG+CAGCACATTGAGCACGTCG ((((((((((.((((((((+)))))))).))))))))))", "yes (1)"],
  ["CGACGTGCGGAATGTGCTG+CAGCACATGCCGCACGTCG ((((((((((.((((((((+)))))))).))))))))))", "yes (1)"],
  ["CGACGTGCATTATGTGCTG+CAGCACATCTCGCACGTCG ((((((((...((((((((+))))))))...))))))))", "no (0)"],
  ["CGACGTGCATTATGTGCTG+CAGCACATCAAGCACGTCG ((((((((.(.((((((((+)))))))).).))))))))", "no (0)"],
  ["CGACGTGCATAATGTGCTG+CAGCACATACGGCACGTCG ((((((((...((((((((+))))))))...))))))))", "no (0)"],
  ["CGACGTGCCGTATGTGCTG+CAGCACATTGTGCACGTCG ((((((((...((((((((+))))))))...))))))))", "no (0)"],
  ["CGACGTGCGAAATGTGCTG+CAGCACATTTCGCACGTCG (((((((((((((((((((+)))))))))))))))))))", "yes (1)"],
  ["CGACGTGCTTAATGTGCTG+CAGCACATTTTGCACGTCG ((((((((..(((((((((+)))))))))..))))))))", "yes (1)"]
]}

QUERY: For this substance, is measured Tm 50 °C or higher? CGACGTGCCATATGTGCTG+CAGCACATATGGCACGTCG (((((((((((((((((((+)))))))))))))))))))
RESULT: yes (1)

QUERY: Could you tell me if the measured Tm of CGACGTGCCGTATGTGCTG+CAGCACATATAGCACGTCG ((((((((..(((((((((+)))))))))..)))))))) reaches 50 °C or more?
RESULT: yes (1)

----------
test: melting temperature; melt of duplexes; details: sodium 0.0675 M; strand 1 µM
The following substances are listed with their measured Tm values.
The reply should contain only the number, in °C.

QUERY: Give a short answer stating reported Tm for CGACGTGCATGATGTGCTG+CAGCACATCTTGCACGTCG (((((((((.(((((((((+))))))))).))))))))) .
RESULT: 58.3

QUERY: Please look at this substance and report its Tm: CGACGTGCTGCATGTGCTG+CAGCACATCTTGCACGTCG ((((((((...((((((((+))))))))...))))))))
RESULT: 50.1

QUERY: Identify Tm associated with the substance CGACGTGCGACATGTGCTG+CAGCACATCTGGCACGTCG ((((((((.(.((((((((+)))))))).).))))))))
RESULT: 49

QUERY: Supply measured Tm of CGACGTGCGGCATGTGCTG+CAGCACATGGCGCACGTCG (((((((((.(((((((((+))))))))).))))))))) in your reply.
RESULT: 65.9

QUERY: Specify measured Tm for CGACGTGCCCTATGTGCTG+CAGCACATCAGGCACGTCG (((((((((..((((((((+))))))))..))))))))) .
RESULT: 53.8

QUERY: Note Tm for the substance shown: CGACGTGCATAATGTGCTG+CAGCACATCGCGCACGTCG ((((((((...((((((((+))))))))...))))))))
RESULT: 46.9

QUERY: Answer with reported Tm of CGACGTGCTCCATGTGCTG+CAGCACATGTTGCACGTCG ((((((((..(((((((((+)))))))))..))))))))
RESULT: 52.7
